- TARGET_UNDER_TEST: T1, human FLT3 (hFLT3) (human, UniProt P36888 27-543)
- T1 construct: also called huFlt3; Fms-Like Tyrosine Kinase 3
- T1 sequence (looked up): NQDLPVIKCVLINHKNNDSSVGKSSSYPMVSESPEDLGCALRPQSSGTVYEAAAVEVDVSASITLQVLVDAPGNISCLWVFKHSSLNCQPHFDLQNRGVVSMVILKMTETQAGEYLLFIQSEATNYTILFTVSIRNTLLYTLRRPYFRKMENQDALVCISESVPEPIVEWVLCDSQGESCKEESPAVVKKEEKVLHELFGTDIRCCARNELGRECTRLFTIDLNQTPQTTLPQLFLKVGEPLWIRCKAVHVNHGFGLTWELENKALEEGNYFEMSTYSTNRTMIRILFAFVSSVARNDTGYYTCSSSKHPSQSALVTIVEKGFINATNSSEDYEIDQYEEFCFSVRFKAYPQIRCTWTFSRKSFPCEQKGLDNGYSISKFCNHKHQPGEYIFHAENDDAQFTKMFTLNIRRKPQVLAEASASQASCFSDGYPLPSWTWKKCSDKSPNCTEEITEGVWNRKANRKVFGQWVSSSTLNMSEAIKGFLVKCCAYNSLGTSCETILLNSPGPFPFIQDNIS
- TEST_NAME: SPR (Biacore T200), 37 C; IgG captured on anti-human Fc, hFLT3 as analyte
- Procedure: All experiments were performed on a Biacore T200 surface Plasmon resonance biosensor (GE Lifesciences, Piscataway N.J.). […] The experiments were performed at 37° C. using a running buffer of 10 mM HEPES, 150 mM NaCl, 0.05% (v/v) Tween-20, pH 7.4, 1 mg/mL BSA. […] After the analyte injection, dissociation was monitored for 10 minutes followed by regeneration of all flow cells with three 1-minute injections of 75 mM Phosphoric Acid. […]
pKd: −log10 of the molar value.
Answer no if pKd is under 8, and yes if it is 8 or more.

Prompt: Check if pKd >= 8 (inclusive). Item: P5A3 (IgG format) (antibody, V domains shown, IgG format, captured by anti-human Fc) VH: QVQLVQSGAEVKKPGSSVKVSCKASGGTFSSYYIGWVRQAPGQGLEWMGGIIPWFGTANYAQKFQGRVTITADKSTNTAYMELSSLRSEDTAVYYCAADHHDSPSGYTSGGFDVWGQGTLVTVSS VL: QSALTQPASVSGSPGQSITISCTGTSSDVGGYNYVSWYQQHPGKAPKLMIYEVSKRPSGVPDRFSGSKSGNTASLTVSGLQAEDEADYYCSSYAGSNTVVFGGGTKLTVL
Completion: no

Prompt: Check if pKd >= 8 (inclusive). Item: P3E10 (IgG format) (antibody, V domains shown, IgG format, captured by anti-human Fc) VH: QVQLVQSGAEVKKPGSSVKVSCKASGGTFSSYAIQWVRQAPGQGLEWMGGIVGSWGLANYAQKFQGRVTITTDKSTSTAYMELSSLRSEDTAVYYCATSAFGELASWGQGTLVTVSS VL: EIVLTQSPGTLSLSPGERATLSCRASQSVPSSQLAWYQQKPGQAPRLLIYDASSRATGIPDRFSGSGSGTDFTLTISRLEPEDFAVYYCQQYGSSPLTFGQGTKVEIK
Completion: no

Prompt: Check if pKd >= 8 (inclusive). Item: P4H11 (IgG format) (antibody, V domains shown, IgG format, captured by anti-human Fc) VH: EVQLLESGGGLVQPGGSLRLSCAASGFTFSSYAMNWVRQAPGKGLEWVSSISGGGRSTYYADSVKGRFTISRDNSKNTLYLQMNSLRAEDTAVYYCARDLSPSDVGWGYGFDIWGQGTLVTVSS VL: EIVLTQSPGTLSLSPGERATLSCRASQSVSNTYLAWYQQKPGQAPRLLIYDTSSRATGIPDRFSGSGSGTDFTLTISRLEPEDFAVYYCQQYGSSLTFGQGTKVEIK
Completion: no

Consider the additional binder presented here.
Prompt: Check if pKd >= 8 (inclusive). Item: P1A5 (IgG format) (antibody, V domains shown, IgG format, captured by anti-human Fc; the entry printed as P1A5 is used) VH: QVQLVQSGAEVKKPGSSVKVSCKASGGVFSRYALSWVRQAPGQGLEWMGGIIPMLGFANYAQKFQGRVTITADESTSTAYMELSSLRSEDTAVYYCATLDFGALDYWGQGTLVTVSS VL: EIVLTQSPGTLSLSPGERATLSCRASQAVDSSDLAWYQQKPGQAPRLLIYDAYTRPSGIPDRFSGSGSGTDFTLTISRLEPEDFAVYYCQQYGSSPLTFGGGTKLEIK
Completion: yes
